Every entry's value here was drawn from patent US20180282281A1.

TARGET OR SYSTEM: human IDO1 (Homo sapiens)
Construct: expressed in transfected cells
PROTOCOL: HEK293 human IDO1 cell-based IDO inhibition assay
CONDITION LABEL: read-out: HEK Human IDO-1 Potency
pIC50: −log10 of the molar value.
ATTRIBUTE MEASURED: pIC50

Record excerpt, results attached:
[
  {
    "COMPOUND": "C[C@@H](C(=O)Nc1ccncc1)[C@H]1CC[C@@H](c2ccnc3ccc(F)cc32)CC1",
    "pIC50": "> 7.30"
  },
  {
    "COMPOUND": "CCCC(C(=O)NC1(C)CCCCC1)N1CCN(c2ccnc3ccc(F)cc23)CC1 (single isomer, unassigned) [Example 249]",
    "pIC50": "> 7.30"
  },
  {
    "COMPOUND": "COCC(C(=O)Nc1ccc(Cl)cc1)N1CCN(c2ccnc3ccc(F)cc23)CC1 (single isomer, unassigned) [Example 135]",
    "pIC50": "< 6.60"
  },
  {
    "COMPOUND": "CCCC(C(=O)Nc1ccc(Cl)cc1)N1CCN(c2ccnc3ccc(F)cc23)CC1 (single isomer, unassigned) [Example 245]",
    "pIC50": "> 6.60"
  }
]

Now for the compound whose pIC50 we want.
[ask] Query: pIC50; subject: Cc1ccc(NC(=O)C(C)N2CCC(Oc3ccnc4ccc(F)cc34)CC2)cc1 (centres unmarked) [compound 101]
[reply] > 7.30

* * *

IC50 for assorted molecules
TARGET OR SYSTEM: human IDO1 (Homo sapiens, UniProt P14902)
Construct: expressed in transfected cells
Sequence (P14902 whole entry): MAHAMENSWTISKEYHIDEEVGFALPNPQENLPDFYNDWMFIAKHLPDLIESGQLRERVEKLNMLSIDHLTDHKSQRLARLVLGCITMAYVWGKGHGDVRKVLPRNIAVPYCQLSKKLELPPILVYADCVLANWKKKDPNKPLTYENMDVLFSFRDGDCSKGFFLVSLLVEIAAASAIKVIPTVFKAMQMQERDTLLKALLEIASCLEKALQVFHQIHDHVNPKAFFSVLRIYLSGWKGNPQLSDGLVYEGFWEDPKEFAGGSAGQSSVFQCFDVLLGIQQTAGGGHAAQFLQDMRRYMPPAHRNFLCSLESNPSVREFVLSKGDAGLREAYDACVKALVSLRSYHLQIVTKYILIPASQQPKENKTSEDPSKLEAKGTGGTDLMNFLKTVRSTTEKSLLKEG
PROTOCOL: HEK293 human IDO1 cell-based IDO inhibition assay
CONDITION LABEL: read-out: HEK Human IDO-1 Potency

Some molecules with recorded IC50:
[
  {
    "MOLECULE": "C[C@H](C(=O)Nc1ccc(Cl)cc1)[C@H]1CC[C@H](c2ccnc3ccc(I)cc32)CC1 (single isomer, unassigned) [Example 152c]",
    "MEASURED RESULT": "< 250 nM"
  },
  {
    "MOLECULE": "CCC(C(=O)Nc1ccc(Cl)cc1)C1CCN(c2ccnc3ccc(F)cc23)CC1 (racemic) [Example 243]",
    "MEASURED RESULT": "> 250 nM"
  },
  {
    "MOLECULE": "C[C@@H](C(=O)Nc1ccc(Cl)cc1)[C@H]1CC[C@@H](c2ccnc3c2ncn3C)CC1 (single isomer, unassigned) [Example 251d]",
    "MEASURED RESULT": "> 250 nM"
  },
  {
    "MOLECULE": "CCC(C(=O)Nc1ccc(Cl)cc1)[C@H]1CC[C@@H](Oc2ccnc3ccc(C(F)(F)F)cc23)CC1 (single isomer, unassigned) [Example 89a]",
    "MEASURED RESULT": "< 250 nM"
  },
  {
    "MOLECULE": "C[C@@H](C(=O)Nc1ccc(C(F)(F)F)cc1)[C@H]1CC[C@@H](c2ccnc3ccc(F)cc32)CC1 [Example 60]",
    "MEASURED RESULT": "< 50 nM"
  },
  {
    "MOLECULE": "C[C@@H](C(=O)Nc1cccc(C#N)c1)[C@H]1CC[C@@H](c2ccnc3ccc(F)cc32)CC1 [Example 79]",
    "MEASURED RESULT": "< 250 nM"
  },
  {
    "MOLECULE": "CC1(CC(=O)Nc2ccc(F)cc2)CCN(c2ccnc3ccc(F)cc23)CC1 [Example 120]",
    "MEASURED RESULT": "> 250 nM"
  },
  {
    "MOLECULE": "Cc1cc(Cl)ccc1NC(=O)[C@H](C)[C@H]1CC[C@@H](c2ccnc3ccc(F)cc32)CC1 [Example 64]",
    "MEASURED RESULT": "< 250 nM"
  }
]

[ask] Suppose we examine the molecule CCCC(C(=O)NC1(C)CCCCC1)N1CCN(c2ccnc3ccc(F)cc23)CC1 (racemic) [Example 247] ; what IC50 value has been reported?
[reply] > 250 nM

[ask] Please do the same for C[C@@H](C(=O)Nc1ccc(Cl)cc1)[C@H]1CC[C@H](c2ccnc3ccc(I)cc32)CC1 (single isomer, unassigned) [Example 152d] as well.
[reply] < 50 nM

[ask] Try this molecule too: O=C(CN1CCC(Oc2ccc3nccc(Cl)c3c2)CC1)Nc1ccc(Cl)cc1 [Example 90]
[reply] > 250 nM
